Each recorded value in this set is attributed to patent US20240335442A1.

- experimental-target: human sodium channel Nav 1.7 (Homo sapiens (Human))
- assay-explanation: Automated whole-cell voltage-clamp (ScreenPatch 384P), Nav 1.7 sodium current, Protocol 2
- Type: cell-based
- condition: read-out: Nav1.7 IC50
pIC50: −log10 of the molar value.
outcome-measure: pIC50

Below: 8 compounds and their reported pIC50.
[[record]]
compound = "COc1cc(/C=N/NC(=O)c2cncc(-c3ccc(OC4CCCC4)cc3Cl)n2)cc(OC)c1 [Compound 157]"
outcome_measure = "pIC50"
reported_value = 6.74

[[record]]
compound = "COc1cc(/C=N/NC(=O)c2cncc(-c3ccc(OC)cc3C)n2)cc(OC)c1 [Compound 109]"
outcome_measure = "pIC50"
reported_value = 6.25

[[record]]
compound = "COc1ccc(-c2cncc(C(=O)N/N=C/c3cccc(Br)c3)n2)cc1 [Compound 55]"
outcome_measure = "pIC50"
reported_value = 5.66

[[record]]
compound = "CCOc1ccc(-c2cncc(C(=O)N/N=C/c3ccccc3CS(C)(=O)=O)n2)cc1 [Compound 191]"
outcome_measure = "pIC50"
reported_value = 5.49

[[record]]
compound = "Cc1cc(C)cc(/C=N/NC(=O)c2cncc(-c3ccc(OC4CCCC4)cc3)n2)c1 [Compound 150]"
outcome_measure = "pIC50"
reported_value = 6.92

[[record]]
compound = "CCOc1ccc(-c2cncc(C(=O)N/N=C/c3cc(OC)c(F)c(OC)c3)n2)c(OC)c1 [Compound 107]"
outcome_measure = "pIC50"
reported_value = 5.29

[[record]]
compound = "CCOc1ccc(-c2cncc(C(=O)N/N=C/c3cccc(OC)c3)n2)cc1 [Compound 22]"
outcome_measure = "pIC50"
reported_value = 6.64

[[record]]
compound = "CCOc1ccc(-c2nc(C(=O)N/N=C/c3cc(OC)cc(OC)c3)cnc2Cl)cc1 [Compound 209]"
outcome_measure = "pIC50"
reported_value = 5.61


a. CCOc1ccc(-c2cncc(C(=O)N/N=C/c3cc(OC)c(F)c(OC)c3)n2)cc1 [Compound 17]
b. CCOc1cc(/C=N/NC(=O)c2cncc(-c3ccc(OC)cc3)n2)cc(OCC)c1 [Compound 67]
c. COc1cc(/C=N/NC(=O)c2cncc(-c3ccc(CC(C)C)cc3)n2)cc(OC)c1 [Compound 116]
d. COc1ccc(-c2cncc(C(=O)N/N=C/c3ccccc3OC)n2)cc1 [Compound 42]
e. CCCCOc1ccc(-c2cncc(C(=O)N/N=C/c3cc(C)cc(C)c3)n2)cc1 [Compound 84]
Input: Could you please order the items by pIC50, going from the lowest number to the highest? Output the labels ranked as instructed.
Output: a, d, b, c, e
(a: 5.10, d: 5.41, b: 5.71, c: 6.18, e: 6.75)

====

- experimental-target: human sodium channel Nav 1.7 (Homo sapiens (Human), UniProt Q15858)
- Sequence (Q15858 whole entry): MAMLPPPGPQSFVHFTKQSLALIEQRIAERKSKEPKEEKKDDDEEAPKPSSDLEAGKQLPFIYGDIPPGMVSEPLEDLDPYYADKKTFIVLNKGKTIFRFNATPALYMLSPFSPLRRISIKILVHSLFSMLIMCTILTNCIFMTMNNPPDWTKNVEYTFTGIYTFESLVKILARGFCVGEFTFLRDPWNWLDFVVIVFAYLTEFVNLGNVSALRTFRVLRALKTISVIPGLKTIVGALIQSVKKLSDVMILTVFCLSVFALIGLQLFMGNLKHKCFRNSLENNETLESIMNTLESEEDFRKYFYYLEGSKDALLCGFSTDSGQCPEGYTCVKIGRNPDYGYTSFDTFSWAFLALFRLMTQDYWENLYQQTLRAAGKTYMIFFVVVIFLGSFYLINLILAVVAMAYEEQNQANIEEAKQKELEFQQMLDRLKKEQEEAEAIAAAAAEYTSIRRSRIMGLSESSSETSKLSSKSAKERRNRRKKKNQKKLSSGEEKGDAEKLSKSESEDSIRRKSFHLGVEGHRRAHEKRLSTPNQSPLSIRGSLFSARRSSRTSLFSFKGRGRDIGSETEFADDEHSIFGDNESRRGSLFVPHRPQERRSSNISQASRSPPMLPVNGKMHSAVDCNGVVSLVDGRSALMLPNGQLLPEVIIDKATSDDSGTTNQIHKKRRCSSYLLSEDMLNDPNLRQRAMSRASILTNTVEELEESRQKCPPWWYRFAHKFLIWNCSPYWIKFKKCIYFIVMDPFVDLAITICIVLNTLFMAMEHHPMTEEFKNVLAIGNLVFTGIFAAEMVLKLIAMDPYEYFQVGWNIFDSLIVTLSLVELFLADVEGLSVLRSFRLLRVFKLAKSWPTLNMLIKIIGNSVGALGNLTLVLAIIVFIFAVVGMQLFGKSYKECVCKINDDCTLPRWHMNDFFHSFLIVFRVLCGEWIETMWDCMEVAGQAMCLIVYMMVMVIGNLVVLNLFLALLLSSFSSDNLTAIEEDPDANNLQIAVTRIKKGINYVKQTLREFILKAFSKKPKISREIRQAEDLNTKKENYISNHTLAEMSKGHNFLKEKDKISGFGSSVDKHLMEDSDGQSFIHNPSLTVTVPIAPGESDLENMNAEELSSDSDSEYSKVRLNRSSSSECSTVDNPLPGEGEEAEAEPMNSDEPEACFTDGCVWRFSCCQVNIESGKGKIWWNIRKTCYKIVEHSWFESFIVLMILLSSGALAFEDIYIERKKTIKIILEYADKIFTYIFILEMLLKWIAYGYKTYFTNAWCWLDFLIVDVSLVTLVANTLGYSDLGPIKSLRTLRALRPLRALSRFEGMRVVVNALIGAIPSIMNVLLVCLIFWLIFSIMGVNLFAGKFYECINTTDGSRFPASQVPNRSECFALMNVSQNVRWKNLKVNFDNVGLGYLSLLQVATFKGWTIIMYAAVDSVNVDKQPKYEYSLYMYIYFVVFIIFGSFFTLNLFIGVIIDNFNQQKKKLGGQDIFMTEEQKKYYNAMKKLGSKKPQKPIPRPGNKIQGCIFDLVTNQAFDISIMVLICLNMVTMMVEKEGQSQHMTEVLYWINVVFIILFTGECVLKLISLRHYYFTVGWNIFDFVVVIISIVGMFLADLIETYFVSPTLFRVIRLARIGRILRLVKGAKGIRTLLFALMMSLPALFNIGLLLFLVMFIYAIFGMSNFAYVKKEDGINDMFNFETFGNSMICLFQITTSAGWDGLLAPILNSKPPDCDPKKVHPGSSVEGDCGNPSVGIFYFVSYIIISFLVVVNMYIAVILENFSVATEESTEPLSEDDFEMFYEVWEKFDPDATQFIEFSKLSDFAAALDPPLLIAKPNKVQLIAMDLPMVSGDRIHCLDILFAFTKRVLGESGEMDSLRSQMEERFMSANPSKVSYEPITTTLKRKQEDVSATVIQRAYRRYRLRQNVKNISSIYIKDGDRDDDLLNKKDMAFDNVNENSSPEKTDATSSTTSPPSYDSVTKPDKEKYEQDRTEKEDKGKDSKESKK
- assay-explanation: Automated whole-cell voltage-clamp (ScreenPatch 384P), Nav 1.7 sodium current, Protocol 1
- Assay type: cell-based
- condition: Protocol 1 (holding voltage -90 mV, 0.1 Hz); CHO cells expressing human Nav 1.7; room temperature; read-out: Nav1.7 IC50
outcome-measure: IC50 (µM)

[[record]]
structure_smiles_string = "CCOc1ccc(-c2cncc(C(=O)N/N=C/c3cc(OC)cc(OCCN(C)C)c3)n2)cc1"
experimental_target = "human sodium channel Nav 1.7 (Homo sapiens (Human), UniProt Q15858)"
reported_value = 6.66

[[record]]
structure_smiles_string = "CCOc1ccc(-c2cncc(C(=O)N/N=C(\\C)c3cc(OC)cc(OC)c3)n2)cc1"
experimental_target = "human sodium channel Nav 1.7 (Homo sapiens (Human), UniProt Q15858)"
reported_value = 6.36


====

- experimental-target: UniProt Q9Y5Y9
- assay-explanation: Automated whole-cell voltage-clamp (ScreenPatch 384P), Nav 1.8 sodium current, Protocol 2
- Format: cell-based
- condition: read-out: Nav1.8 IC50
outcome-measure: IC50 (nM)

Below: 7 compounds and their reported IC50.
[[record]]
structure_smiles_string = "CCOc1cc(/C=N/NC(=O)c2cncc(-c3ccc(OC)cc3)n2)cc(OCC)c1"
outcome_measure = "IC50"
reported_value = 747

[[record]]
structure_smiles_string = "COc1ccc(-c2cncc(C(=O)N/N=C/c3cc(C(F)(F)F)cc(C(F)(F)F)c3)n2)cc1"
outcome_measure = "IC50"
reported_value = 777

[[record]]
structure_smiles_string = "CCSc1ccc(-c2cncc(C(=O)N/N=C/c3cc(OC)cc(OC)c3)n2)cc1"
outcome_measure = "IC50"
reported_value = 79.9

[[record]]
structure_smiles_string = "COc1cc(/C=N/NC(=O)c2cncc(-c3ccc(CC(C)C)cc3)n2)cc(OC)c1"
outcome_measure = "IC50"
reported_value = 332

[[record]]
structure_smiles_string = "CCOc1ccc(-c2cncc(C(=O)N/N=C/c3cccc(OC)c3)n2)c(F)c1"
outcome_measure = "IC50"
reported_value = 128

[[record]]
structure_smiles_string = "COc1cc(/C=N/NC(=O)c2cncc(-c3ccc(OC)cc3F)n2)cc(OC)c1"
outcome_measure = "IC50"
reported_value = 117

[[record]]
structure_smiles_string = "CCOc1ccc(-c2cncc(C(=O)N/N=C/c3cccc(OC)c3)n2)c(OCC)c1"
outcome_measure = "IC50"
reported_value = 121


A. COc1cc(/C=N/NC(=O)c2cncc(-c3ccc(OC)nc3)n2)cc(OC)c1
B. COc1ccc(-c2cncc(C(=O)N/N=C/c3cccc(OC)c3)n2)cc1
C. CCOc1ccc(-c2cncc(C(=O)N/N=C/c3cc(OC)c(F)c(OC)c3)n2)cc1
Input: Could you please order the items by IC50, going from the lowest number to the highest? Output the labels ranked as instructed.
Output: B, C, A
(B: 115 nM, C: 232 nM, A: 398 nM)

====

- experimental-target: human sodium channel Nav 1.8 (Homo sapiens (Human), UniProt Q9Y5Y9)
- Sequence (Q9Y5Y9 whole entry): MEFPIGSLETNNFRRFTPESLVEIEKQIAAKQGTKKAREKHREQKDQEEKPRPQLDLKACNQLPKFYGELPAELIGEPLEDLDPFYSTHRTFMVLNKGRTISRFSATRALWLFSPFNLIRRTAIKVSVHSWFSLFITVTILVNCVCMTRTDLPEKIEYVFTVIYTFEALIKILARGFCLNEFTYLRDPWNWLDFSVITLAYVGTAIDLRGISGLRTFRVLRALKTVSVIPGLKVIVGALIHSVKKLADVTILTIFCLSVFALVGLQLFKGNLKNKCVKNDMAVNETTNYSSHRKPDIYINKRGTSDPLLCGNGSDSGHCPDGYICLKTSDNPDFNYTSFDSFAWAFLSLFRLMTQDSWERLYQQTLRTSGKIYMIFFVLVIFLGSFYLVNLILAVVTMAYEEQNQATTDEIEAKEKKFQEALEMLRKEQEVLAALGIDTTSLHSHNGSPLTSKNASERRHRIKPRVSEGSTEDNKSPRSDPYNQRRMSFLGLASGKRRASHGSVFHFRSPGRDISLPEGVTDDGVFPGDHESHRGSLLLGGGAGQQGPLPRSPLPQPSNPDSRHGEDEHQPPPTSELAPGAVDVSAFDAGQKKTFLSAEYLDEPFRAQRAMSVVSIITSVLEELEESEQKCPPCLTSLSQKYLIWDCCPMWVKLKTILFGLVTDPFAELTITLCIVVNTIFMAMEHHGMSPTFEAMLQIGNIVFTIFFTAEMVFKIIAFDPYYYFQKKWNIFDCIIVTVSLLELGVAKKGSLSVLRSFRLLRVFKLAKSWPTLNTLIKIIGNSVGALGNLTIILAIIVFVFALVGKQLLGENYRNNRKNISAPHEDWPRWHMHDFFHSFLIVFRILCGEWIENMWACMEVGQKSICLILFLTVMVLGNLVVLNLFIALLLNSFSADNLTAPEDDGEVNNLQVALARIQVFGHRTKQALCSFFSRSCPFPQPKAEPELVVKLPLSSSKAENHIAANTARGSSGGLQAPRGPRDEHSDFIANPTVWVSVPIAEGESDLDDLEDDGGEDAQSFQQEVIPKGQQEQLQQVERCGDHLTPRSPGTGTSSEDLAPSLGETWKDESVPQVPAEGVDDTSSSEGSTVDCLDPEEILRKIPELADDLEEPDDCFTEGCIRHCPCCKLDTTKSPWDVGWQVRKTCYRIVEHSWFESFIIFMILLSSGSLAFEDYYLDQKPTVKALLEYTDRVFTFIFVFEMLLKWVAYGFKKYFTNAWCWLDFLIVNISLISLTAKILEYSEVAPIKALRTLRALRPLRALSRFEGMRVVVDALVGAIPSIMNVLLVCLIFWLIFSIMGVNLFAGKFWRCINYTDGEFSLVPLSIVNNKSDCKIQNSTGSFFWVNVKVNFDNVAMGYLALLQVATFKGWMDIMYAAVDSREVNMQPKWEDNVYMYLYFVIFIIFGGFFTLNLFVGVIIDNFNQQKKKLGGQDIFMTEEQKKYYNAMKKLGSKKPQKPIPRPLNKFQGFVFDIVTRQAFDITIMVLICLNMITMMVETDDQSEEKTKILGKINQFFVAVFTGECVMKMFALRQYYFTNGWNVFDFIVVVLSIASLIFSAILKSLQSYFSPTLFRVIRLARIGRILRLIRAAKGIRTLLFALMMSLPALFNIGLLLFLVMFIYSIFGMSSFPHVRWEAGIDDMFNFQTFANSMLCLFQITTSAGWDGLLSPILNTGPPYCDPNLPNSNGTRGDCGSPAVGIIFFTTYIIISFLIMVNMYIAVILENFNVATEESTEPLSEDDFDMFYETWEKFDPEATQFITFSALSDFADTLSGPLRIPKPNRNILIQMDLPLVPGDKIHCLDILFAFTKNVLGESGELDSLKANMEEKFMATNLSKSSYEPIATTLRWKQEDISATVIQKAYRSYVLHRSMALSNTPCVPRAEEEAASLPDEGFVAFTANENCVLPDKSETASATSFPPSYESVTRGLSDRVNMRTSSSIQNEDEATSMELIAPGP
- assay-explanation: Automated whole-cell voltage-clamp (ScreenPatch 384P), Nav 1.8 sodium current, Protocol 2
- Format: cell-based
- condition: read-out: Nav1.8 IC50
outcome-measure: IC50 (µM)

[[record]]
structure_smiles_string = "COc1ccc(-c2cncc(C(=O)N/N=C/c3cccc(Cl)c3)n2)cc1"
outcome_measure = "IC50"
reported_value = 0.311

[[record]]
structure_smiles_string = "CCOc1ccc(-c2cncc(C(=O)N/N=C/c3cc(OC)ccc3OC)n2)cc1"
outcome_measure = "IC50"
reported_value = 0.152

[[record]]
structure_smiles_string = "CCOc1ccc(-c2cncc(C(=O)N/N=C/c3cc(OC)ccc3Cl)n2)cc1"
outcome_measure = "IC50"
reported_value = 0.0626

[[record]]
structure_smiles_string = "COc1cc(/C=N/NC(=O)c2cncc(-c3ccc(OC4CCCC4)cc3Cl)n2)cc(OC)c1"
outcome_measure = "IC50"
reported_value = 0.456

[[record]]
structure_smiles_string = "COc1cc(/C=N/NC(=O)c2cncc(-c3ccc(OC)cc3OC)n2)cc(OC)c1"
outcome_measure = "IC50"
reported_value = 0.0732


P. COc1ccc(-c2cncc(C(=O)N/N=C/c3ccccc3C(F)(F)F)n2)cc1
Q. CCOc1ccc(-c2cncc(C(=O)N/N=C/C3CCC(F)(F)CC3)n2)cc1
R. CCOc1ccc(-c2cncc(C(=O)N/N=C/c3cccc(OC)c3F)n2)cc1
Input: Could you please order the items by IC50, going from the lowest number to the highest? Output the labels ranked as instructed.
Output: R, P, Q

a. COc1ccc(-c2cncc(C(=O)N/N=C/c3ccccc3C)n2)cc1
b. CCOc1ccc(-c2cncc(C(=O)N/N=C/c3cccc(OC)c3OC)n2)cc1
c. COc1ccc(-c2cncc(C(=O)N/N=C/c3ccccc3Cl)n2)cc1
d. COc1ccc(-c2cncc(C(=O)N/N=C/c3ccc(F)cc3)n2)cc1
e. COc1cc(/C=N/NC(=O)c2cncc(-c3ccc(C)cc3)n2)cc(OC)c1
Input: Order these by IC50, descending, and give the full ranking. Output the labels ranked as instructed.
Output: e, d, b, a, c
(e: 0.887 µM, d: 0.34 µM, b: 0.221 µM, a: 0.131 µM, c: 0.082 µM)

P. CCOc1ccc(-c2cncc(C(=O)N/N=C/c3cccc(OC)c3)n2)c(C(F)(F)F)c1
Q. CCOc1ccc(-c2cncc(C(=O)N/N=C/C3CCCCCC3)n2)cc1
R. COc1cc(/C=N/NC(=O)c2cncc(-c3ccc(OC)cc3C(F)(F)F)n2)cc(OC)c1
Input: Order these by IC50, descending, and give the full ranking. Output the labels ranked as instructed.
Output: R, Q, P
(R: 0.803 µM, Q: 0.3 µM, P: 0.133 µM)

====

- experimental-target: human sodium channel Nav 1.8 (Homo sapiens (Human), UniProt Q9Y5Y9)
- assay-explanation: Automated whole-cell voltage-clamp (ScreenPatch 384P), Nav 1.8 sodium current, Protocol 2
- Type: cell-based
- condition: read-out: Nav1.8 IC50
pIC50: −log10 of the molar value.
outcome-measure: pIC50

[[record]]
structure_smiles_string = "CCOc1ccc(-c2cncc(C(=O)N/N=C/c3cccc(OC)c3)n2)c(Cl)c1"
outcome_measure = "pIC50"
reported_value = 6.92


P. CCOc1ccc(-c2cncc(C(=O)N/N=C/c3cc(OC)cc(OC)c3)n2)cc1
Q. CCOc1ccc(-c2cncc(C(=O)N/N=C/c3ccccc3S(C)(=O)=O)n2)cc1
R. CCOc1ccc(-c2cncc(C(=O)N/N=C/c3cccc(OC)c3)n2)c(OC)c1
Input: Order these by pIC50, descending, and give the full ranking. Output the labels ranked as instructed.
Output: R, P, Q
(R: 7.75, P: 7.49, Q: 6.02)
